So I've got MIC readings for S. aureus ATCC 29213, take a look.
readout label: MIC (µg/mL)

1) COc1c(N2CCNCC2)c(F)cc2c(=O)c3c(O)csc3n(C3CC3)c12 | 32
2) COc1c(N2C[C@H]3CNC[C@H]3C2)c(F)cc2c(=O)c3c(O)c(C#N)sc3n(C3CC3)c12 | 0.25
3) COc1c(C2=CCNCC2)c(F)cc2c(=O)c3c(O)c(C#N)sc3n(C3CC3)c12 | 0.5
4) COc1c(N2CCC(C(F)(F)F)CC2)c(F)cc2c(=O)c3c(n(C4CC4)c12)SC(C#N)C3=O (stereo not shown) | 1

* * *

So I've got MIC readings for S. aureus ATCC 29213, take a look.
readout label: MIC (µg/mL)

1. COc1c(N2CCCC(CN)C2)c(F)cc2c(=O)c3c(O)c(C#N)sc3n(C3CC3)c12 (centres unmarked) | 0.03
2. COc1c(N2CCCC(C(N)=O)C2)c(F)cc2c(=O)c3c(O)c(C#N)sc3n(C3CC3)c12 (centres unmarked) | 0.03
3. COc1c(N2CCNCC2)c(F)cc2c(=O)c3c(O)c(C(C)=O)sc3n(C3CC3)c12 | 0.25
4. COc1c(N2CC[C@@H](C(C)(C)N(C)C)C2)c(F)cc2c(=O)c3c(O)c(C#N)sc3n(C3CC3)c12 | 0.25
5. CCNC(C)(C)[C@@H]1CCN(c2c(F)cc3c(=O)c4c(O)c(C#N)sc4n(C4CC4)c3c2OC)C1 | 0.06
6. COc1c(N2CCCC(=C(F)CN)C2)c(F)cc2c(=O)c3c(O)c(C(C)=O)sc3n(C3CC3)c12 | 0.25
7. COc1c(N2CC[C@H](N)C2)c(F)cc2c(=O)c3c(O)c(C#N)sc3n(C3CC3)c12 | 0.03
8. COc1c(N2CC[C@@H]([C@H](C)N(C)C)C2)c(F)cc2c(=O)c3c(O)c(C#N)sc3n(C3CC3)c12 | 0.06

* * *

Entries annotated with measured MIC
System: fluoroquinolone-resistant S. aureus ATCC 700699
Test: Minimum inhibitory concentration (MIC) assay, broth microdilution, MRSA
Type: cell-based
Details: Staphylococcus aureus; fluoroquinolone-resistant S. aureus ATCC 700699; Table I; read-out: MRSA MIC
readout label: MIC

1) COc1c(N2CCC[C@H]2C(N)=O)c(F)cc2c(=O)c3c(n(C4CC4)c12)SC(C#N)C3=O (some centres unmarked) | 64 µg/mL
2) COc1c(N2CCNCC2)c(F)cc2c(=O)c3c(O)c(S(=O)(=O)c4ccccc4)sc3n(C3CC3)c12 | 16 µg/mL
3) COc1c(N2CC[C@@H](CN)C2)c(F)cc2c(=O)c3c(O)c(C#N)sc3n(C3CC3)c12 | < 0.03 µg/mL
4) COC(=O)c1sc2c(c1O)c(=O)c1cc(F)c(N3CC[C@@H](C(C)(C)N)C3)c(OC)c1n2C1CC1 | 64 µg/mL
5) COc1c(N2CC[C@@H](C(C)(C)N)C2)c(F)cc2c(=O)c3c(O)c(C#N)sc3n(C3CC3)c12 | 0.094 µg/mL
6) COc1c(N2CC[C@@H](CN)C2)c(F)cc2c(=O)c3c(O)c(C(N)=O)sc3n(C3CC3)c12 | 0.5 µg/mL
7) COc1c(N2CC[C@@H]([C@H](C)N(C)C)C2)c(F)cc2c(=O)c3c(O)c(C#N)sc3n(C3CC3)c12 | 0.5 µg/mL
8) CCC(=O)c1sc2c(c1O)c(=O)c1cc(F)c(N3CC[C@@H](C(C)(C)N)C3)c(OC)c1n2C1CC1 | 1 µg/mL

Taken from patent US8173636B2.
